molecular target: Human immunodeficiency virus type 1 protease (Human immunodeficiency virus 1, UniProt Q72874); test: Inhibitory activity was determined against HIV-1 protease.
Below is a list of entries, each paired with its recorded IC50 value.
Express the result in nM but write the number alone.

Record excerpt, results attached:
CC(C)NC(=O)C(F)(F)C(=O)C(Cc1ccc(OCc2ccccc2)cc1)NC(=O)[C@@H](NC(=O)OCc1ccccc1)C(C)C (stereo partly drawn) ... 5
CC(C)[C@H](CCc1ccccc1)NC(=O)C(F)(F)C(=O)C(Cc1ccc(OCc2ccccc2)cc1)NC(=O)[C@@H](NC(=O)OCc1ccccc1)C(C)C (stereo partly drawn) ... 13

Now look at this one.
Quick one: IC50 for CC(C)[C@H](NC(=O)OCc1ccccc1)C(=O)NC(Cc1ccc(OCc2ccccc2)cc1)C(=O)C(F)(F)C(=O)N[C@@H](COCc1ccccc1)c1ccccc1 (stereo partly drawn) ?
1

====

assay: Cytotoxic activity was determined against HIV-1 infected MT-4 cells.; assay type: functional, cell-based; conditions: MT4
READOUT: CD50 (µM)
Express the result in µM but write the number alone.

Record excerpt, results attached:
CC(C)CNC(=O)C(F)(F)C(=O)C(Cc1ccc(OCc2ccccc2)cc1)NC(=O)[C@@H](NC(=O)OCc1ccccc1)C(C)C (stereo partly specified) ... 44
CC(C)[C@H](NC(=O)OCc1ccccc1)C(=O)NC(Cc1ccc(OCc2ccccc2)cc1)C(=O)C(F)(F)C(=O)N[C@@H](C(=O)OC(C)(C)C)C(C)C (stereo partly specified) ... 6
CO[C@H](NC(=O)C(F)(F)C(=O)C(Cc1ccc(OCc2ccccc2)cc1)NC(=O)[C@@H](NC(=O)OCc1ccccc1)C(C)C)C(C)C (stereo partly specified) ... 8
CC(C)[C@H](CCc1ccccc1)NC(=O)C(F)(F)C(=O)C(Cc1ccc(OCc2ccccc2)cc1)NC(=O)[C@@H](NC(=O)OCc1ccccc1)C(C)C (stereo partly specified) ... 35

Now look at this one.
Quick one: CD50 for COC(=O)[C@H](NC(=O)C(F)(F)C(=O)C(Cc1ccc(OCc2ccccc2)cc1)NC(=O)[C@@H](NC(=O)OCc1ccccc1)C(C)C)C(C)C (stereo partly specified) ?
2.6

====

experiment: Cytotoxic activity was determined against HIV-1 infected MT-4 cells.; format: functional, cell-based; details: MT4
READOUT: CD50 (µM)
Express the result in µM but write the number alone.

CC(C)[C@H](NC(=O)OCc1ccccc1)C(=O)NC(Cc1ccc(OCc2ccccc2)cc1)C(=O)C(F)(F)C(=O)N[C@H](COCc1ccccc1)C(C)C (stereo partly specified) ... 35
CC(C)[C@H](NC(=O)OCc1ccccc1)C(=O)NC(Cc1ccc(OCc2ccccc2)cc1)C(=O)C(F)(F)C(=O)N[C@@H](COCc1ccccc1)c1ccccc1 (stereo partly specified) ... 23
CC(C)C(C=O)NC(=O)C(F)(F)C(=O)C(Cc1ccc(OCc2ccccc2)cc1)NC(=O)[C@@H](NC(=O)OCc1ccccc1)C(C)C (stereo partly specified) ... 3.2

Now look at this one.
Quick one: CD50 for CC(C)[C@H](COCc1ccccc1)NC(=O)C(F)(F)C(=O)C(Cc1ccc(OCc2ccccc2)cc1)NC(=O)[C@@H](NC(=O)OCc1ccccc1)C(C)C (stereo partly specified) ?
100

====

Below is a list of entries, each paired with its recorded CD50 value.
assay: Cytotoxic activity was determined against HIV-1 infected MT-4 cells.; format: functional, cell-based; settings: MT4
Express the result in µM but write the number alone.

CC(C)NC(=O)C(F)(F)C(=O)C(Cc1ccc(OCc2ccccc2)cc1)NC(=O)[C@@H](NC(=O)OCc1ccccc1)C(C)C (stereo partly drawn) ... 6
CC(C)C[C@H](COCc1ccccc1)NC(=O)C(F)(F)C(=O)C(Cc1ccc(OCc2ccccc2)cc1)NC(=O)[C@@H](NC(=O)OCc1ccccc1)C(C)C (stereo partly drawn) ... 15

Now look at this one.
Quick one: CD50 for COCCOCO[C@H](NC(=O)C(F)(F)C(=O)C(Cc1ccc(OCc2ccccc2)cc1)NC(=O)[C@@H](NC(=O)OCc1ccccc1)C(C)C)C(C)C (stereo partly drawn) ?
3.4

====

test system: MT4; assay: Antiviral activity against HIV-1 RF in MT-4 cell line; type: functional; details: Homo sapiens, read-out: ED50 (the source's name)
READOUT: pEC50
The read-out pEC50 is expressed as -log10 of concentration in moles per litre.

Quick one: pEC50 for CC(C)[C@H](COCc1ccccc1)NC(=O)C(F)(F)C(=O)C(Cc1ccc(OCc2ccccc2)cc1)NC(=O)[C@@H](NC(=O)OCc1ccccc1)C(C)C (stereo partly specified) ?
7.57

====

biological target: Human immunodeficiency virus type 1 protease (Human immunodeficiency virus 1); assay: Concentration that inhibits cellular growth of MT-4 cells acutely infected with HIV-1 RFstrain by 50%; assay type: functional, cell-based; conditions: MT4
READOUT: ED50 (nM)
Express the result in nM but write the number alone.

Record excerpt, results attached:
CC(C)[C@H](CCc1ccccc1)NC(=O)C(F)(F)C(=O)C(Cc1ccc(OCc2ccccc2)cc1)NC(=O)[C@@H](NC(=O)OCc1ccccc1)C(C)C (stereo partly specified) ... 240
COCCOCCO[C@H](NC(=O)C(F)(F)C(=O)C(Cc1ccc(OCc2ccccc2)cc1)NC(=O)[C@@H](NC(=O)OCc1ccccc1)C(C)C)C(C)C (stereo partly specified) ... 45
CC(C)[C@H](NC(=O)OCc1ccccc1)C(=O)NC(Cc1ccc(OCc2ccccc2)cc1)C(=O)C(F)(F)C(=O)N[C@@H](C(=O)O)C(C)C (stereo partly specified) ... 50000

Quick one: ED50 for CC(C)C[C@H](COCc1ccccc1)NC(=O)C(F)(F)C(=O)C(Cc1ccc(OCc2ccccc2)cc1)NC(=O)[C@@H](NC(=O)OCc1ccccc1)C(C)C (stereo partly specified) ?
200

====

tested on: JM1; test: Antiviral activity against HIV-1 QB8F in JM cell line; assay type: functional; conditions: Homo sapiens, read-out: ED50 (the source's name)
READOUT: pEC50
The read-out pEC50 is expressed as -log10 of concentration in moles per litre.

Quick one: pEC50 for CC(C)[C@H](COCc1ccccc1)NC(=O)C(F)(F)C(=O)C(Cc1ccc(OCc2ccccc2)cc1)NC(=O)[C@@H](NC(=O)OCc1ccccc1)C(C)C (stereo partly specified) ?
7.80

====

tested on: C8166; assay: Antiviral activity against HIV-1 RF in […] cell line; assay type: functional; conditions: Homo sapiens, read-out: ED50 (the source's name)
READOUT: EC50 (nM)
Express the result in nM but write the number alone.

Quick one: EC50 for CC(C)[C@H](COCc1ccccc1)NC(=O)C(F)(F)C(=O)C(Cc1ccc(OCc2ccccc2)cc1)NC(=O)[C@@H](NC(=O)OCc1ccccc1)C(C)C (stereo partly specified) ?
9

====

target: Human immunodeficiency virus type 1 protease (Human immunodeficiency virus 1, UniProt Q72874)
READOUT: pKi
The read-out pKi is expressed as -log10 of concentration in moles per litre.

Quick one: pKi for CC(C)[C@H](COCc1ccccc1)NC(=O)C(F)(F)C(=O)C(Cc1ccc(OCc2ccccc2)cc1)NC(=O)[C@@H](NC(=O)OCc1ccccc1)C(C)C (stereo partly specified) ?
8.10

====

molecular target: UniProt Q72874; assay: Concentration that inhibits cellular growth of MT-4 cells acutely infected with HIV-1 RFstrain by 50%; format: functional, cell-based; settings: MT4
Below is a list of entries, each paired with its recorded ED50 value.
Express the result in nM but write the number alone.

Record excerpt, results attached:
CC(C)[C@H](NC(=O)OCc1ccccc1)C(=O)NC(Cc1ccc(OCc2ccccc2)cc1)C(=O)C(F)(F)C(=O)N[C@@H](COCc1ccccc1)c1ccccc1 (stereo partly drawn) ... 90
CC(C)[C@H](NC(=O)OCc1ccccc1)C(=O)NC(Cc1ccc(OCc2ccccc2)cc1)C(=O)C(F)(F)C(=O)NCc1ccccc1 (stereo partly drawn) ... 300
COCCOCO[C@H](NC(=O)C(F)(F)C(=O)C(Cc1ccc(OCc2ccccc2)cc1)NC(=O)[C@@H](NC(=O)OCc1ccccc1)C(C)C)C(C)C (stereo partly drawn) ... 15
Cc1cn([C@H]2C[C@H](N=[N+]=[N-])[C@@H](CO)O2)c(=O)[nH]c1=O ... 60

Quick one: ED50 for CC(C)[C@H](NC(=O)OCc1ccccc1)C(=O)NC(Cc1ccc(OCc2ccccc2)cc1)C(=O)C(F)(F)C(=O)N[C@H](COCc1ccccc1)C(C)C (stereo partly drawn) ?
350

====

Below is a list of entries, each paired with its recorded CD50 value.
test: Cytotoxic activity was determined against HIV-1 infected MT-4 cells.; format: functional, cell-based; conditions: MT4
Express the result in µM but write the number alone.

COCCOCCO[C@H](NC(=O)C(F)(F)C(=O)C(Cc1ccc(OCc2ccccc2)cc1)NC(=O)[C@@H](NC(=O)OCc1ccccc1)C(C)C)C(C)C (stereo not given in full) ... 2.8

Quick one: CD50 for CC(C)[C@H](COCc1ccccc1)NC(=O)C(F)(F)C(=O)C(Cc1ccc(OCc2ccccc2)cc1)NC(=O)[C@H](NC(=O)OCc1ccccc1)C(C)C (stereo not given in full) ?
95
